Please respond with reported MIC for every item in the list.
- Test system: Escherichia coli
- assay method text: Antibacterial activity against Escherichia coli by broth microdilution method
- Assay type: functional
Quick reminder: number only, in µg/mL, skip the unit.

// query Which value of MIC has been reported for `O=C1C(=O)N(CCn2cnc3ccccc32)c2ccccc21` in the records?
// result 256

// query Now give it for `O=C1C(=O)N(CCn2cncn2)c2ccccc21` too.
// result 32

// query And what about the molecule `O=C1C(=O)N(CCn2cnc([N+](=O)[O-])c2)c2ccccc21` ?
// result 128

// query How about `CCn1cc(C(=O)O)c(=O)c2cc(F)c(N3CCNCC3)cc21` ?
// result 16

// query Proceed to `O=C1C(=O)N(CCn2nnc3ccccc32)c2ccccc21`
// result 128

// query Next molecule up: CC(=O)CC1(O)C(=O)N(CCn2cncn2)c2ccccc21 (stereo not drawn)
// result 256

// query // query: Cc1ccc(C(=O)CC2(O)C(=O)N(CCn3cncn3)c3ccccc32)cc1 (stereo not drawn)
// result 128

// query Next molecule: `O=C(/C=C1\C(=O)N(CCn2cncn2)c2ccccc21)c1ccc(Cl)cc1`
// result 512

----------
- Tested on: Staphylococcus aureus
- assay method text: Antibacterial activity against Staphylococcus aureus ATCC 29213 by broth microdilution method
- Assay type: functional
value type: MIC (mg/L)
Give just the number in mg/L; leave the unit off.

// query Can you look up the measured MIC of `Cc1ncc([N+](=O)[O-])n1CCN1C(=O)C(=O)c2ccccc21` for me?
// result 128

// query Another compound: `O=C(/C=C1\C(=O)N(CCn2cncn2)c2ccccc21)c1ccccc1`
// result 128

// query Try `CCn1cc(C(=O)O)c(=O)c2cc(F)c(N3CCNCC3)cc21` next.
// result 2

// query Query O=C(CC1(O)C(=O)N(CCn2cncn2)c2ccccc21)c1ccc(Cl)cc1 (stereo not drawn) next
// result 128

// query Another: `O=C(/C=C1\C(=O)N(CCn2cncn2)c2ccccc21)c1ccc(Cl)cc1`
// result 64

// query Query `O=C1C(=O)N(CCn2ccnn2)c2ccccc21` next
// result 256

// query Please give the result for O=C(CC1(O)C(=O)N(CCn2cncn2)c2ccccc21)c1ccc(O)cc1 (stereo not drawn) too.
// result 256

// query What would you report for `Cc1cc2ncn(CCN3C(=O)C(=O)c4ccccc43)c2cc1C` ?
// result 128

----------
- System: Staphylococcus aureus
- assay method text: Antibacterial activity against Staphylococcus aureus by broth microdilution method
- Assay type: functional
Assignment: determine reported MIC for the given molecules.
Write the value in µg/mL as a bare number.

// query Item under review: O=C(CC1(O)C(=O)N(CCn2cncn2)c2ccccc21)c1ccc(O)cc1 (centres undefined) . Reported MIC?
// result 256

// query Try this molecule too: `O=C(/C=C1\C(=O)N(CCn2cncn2)c2ccccc21)c1ccccc1`
// result 128

// query Next molecule up: `Cc1ncc([N+](=O)[O-])n1CCN1C(=O)C(=O)c2ccccc21`
// result 128

// query Would you mind doing CC(=O)CC1(O)C(=O)N(CCn2cncn2)c2ccccc21 (centres undefined) as well?
// result 256

// query Another molecule to look at: `O=C(/C=C1\C(=O)N(CCn2cncn2)c2ccccc21)c1ccc(O)cc1`
// result 128

// query Same for `CCn1cc(C(=O)O)c(=O)c2cc(F)c(N3CCNCC3)cc21`
// result 1

// query Try the molecule O=C1C(O)c2ccccc2N1CCn1cncn1 (centres undefined)
// result 128

// query `O=C1C(=O)N(CCn2ccnn2)c2ccccc21` , same question.
// result 32

// query Try this molecule too: `CC(=O)/C=C1\C(=O)N(CCn2cncn2)c2ccccc21`
// result 64
